Assay: drug combination growth inhibition, ovarian cancer – cell-based, oncology-focused library, rucaparib conditional, profiling panel (AID 1508598)
Settings: patient-derived ovarian cancer cells, CellTiter-Glo viability, 144 h; at 0.0195 µM; OCI-C5x cells; with rucaparib 10 µM; 100% = cells with rucaparib alone
The source made the active and inactive calls.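 The calls were made as follows: active = normalized viability below 100% at a tested concentration; inactive = the rest.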
Respond only with the outcome that fits, drawn from TRUE (active), FALSE (inactive)

Cc1ccc(C(=O)N(CCCN)[C@@H](c2nc3cc(Cl)ccc3c(=O)n2Cc2ccccc2)C(C)C)cc1	TRUE
COc1cc(Nc2ncc3c(n2)-c2ccc(Cl)cc2C(c2c(F)cccc2OC)=NC3)ccc1C(=O)O	TRUE
CN1CCC(CNc2ccc3ncc(-c4cccc(OC(F)(F)F)c4)n3n2)CC1	FALSE

What was the test verdict on COc1cc2nccc(Oc3ccc(NC(=O)NC4CC4)c(Cl)c3)c2cc1C(N)=O ?
FALSE

Repeat for the following compound: Nc1cc(C(F)(F)F)c(-c2cc(N3CCOCC3)nc(N3CCOCC3)n2)cn1
FALSE

Repeat for the following compound: COc1ccc(-c2ccc3c(N4CCOCC4)nc(N4C[C@@H](C)O[C@@H](C)C4)nc3n2)cc1CO
FALSE
